assay.name: Drug uptake in brain of Sprague-Dawley rat at 30 mg/kg, po after 3 hrs by LC-MS/MS analysis
Type: ADME, organism-based
condition.summary: read-out: Drug uptake
test.readout: concentration at 3 h (µM)

P. COc1cc(-c2noc3c2CCCC3NCc2cc(F)cc(F)c2)ccc1-n1cnc(C)c1 (stereo in doubt; 14c)
Q. COc1cc(-c2noc3c2CCCC3Nc2ccc(F)cc2)ccc1-n1cnc(C)c1 (stereo in doubt; 14a)
(Q) # argmax over concentration at 3 h for candidates P and Q Please respond with the label that marks your chosen entry.
(A) Q

###

target.or.test.system: Gamma-secretase (Homo sapiens) (UniProt Q96BI3+Q9NZ42+Q8WW43+P49768+Q92542+P49810)
assay.name: Modulation of gamma-secretase (unknown origin) expressed in HEK293 cells harboring SCP99-Lon mutation assessed as ratio of total amyloid beta to amyloid beta 42 level after 5 hrs by sandwich immunoassay
Type: cell-based
test.readout: Ratio

COc1cc(-c2noc3c2CCCC3NC2CCCCC2)ccc1-n1cnc(C)c1 (centres undefined)
64
COc1cc(-c2noc3c2CCCC3Oc2ccc(F)cc2)ccc1-n1cnc(C)c1 (centres undefined)
68

I. COc1cc(-c2noc3c2CCCC3N(C)Cc2ccc(F)cc2)ccc1-n1cnc(C)c1 (centres undefined)
II. COc1cc(-c2noc3c2CCCC3NCc2ccc(F)cc2)ccc1-n1cnc(C)c1 (centres undefined)
(Q) Lab note: check whether I or II has the lower measured Ratio. Answer by quoting the chosen item's label.
(A) II
(II: 32, I: 79)
